Read-out record for human MATE2 (Homo sapiens): pIC50
pIC50 here: minus log base 10 of the concentration, concentration in moles per litre.

Memo: CC(C)CN(C[C@@H](O)[C@H](Cc1ccccc1)NC(=O)O[C@H]1CO[C@H]2OCC[C@H]21)S(=O)(=O)c1ccc(N)cc1 , reported pIC50: 4.51

Memo: COc1cc2nc(N3CCN(C(=O)c4ccco4)CC3)nc(N)c2cc1OC , reported pIC50: 5.62

Memo: CCCc1nn(C)c2c(=O)[nH]c(-c3cc(S(=O)(=O)N4CCN(C)CC4)ccc3OCC)nc12 , reported pIC50: 4.84

Memo: CCS(=O)(=O)N1CC(CC#N)(n2cc(-c3ncnc4[nH]ccc34)cn2)C1 , reported pIC50: 5.17

Memo: CCN(CC)CCCC(C)Nc1ccnc2cc(Cl)ccc12 (stereo not drawn) , reported pIC50: 6.15
